- Test system: HL-60
- TEST_SUMMARY: Cytotoxicity against human HL60 cells by XTT assay
- Assay type: functional, cell-based
Listing of entries alongside the reported IC50.

{"COMPOUND": "CC[C@H]1CN2CCc3cc(OC)c(OC)cc3[C@@H]2C[C@@H]1C[C@H]1NCCc2cc(OC)c(OC)cc21 [EMETINE]", "IC50": "0.38 µg/mL"}
{"COMPOUND": "CC[C@H]1CN2CCc3cc(O)c(OC)cc3[C@@H]2C[C@@H]1C[C@@]1(O)NCCc2cc(O)c(OC)cc21 [KLUGINE]", "IC50": "25 µg/mL"}
{"COMPOUND": "C=C1[C@@H](C)[C@H]2[C@H](Cc3ccccc3)NC(=O)[C@]23OC(=O)/C=C/[C@H](O)CCC[C@@H](C)C/C=C/[C@H]3[C@@H]1O [CYTOCHALASIN B]", "IC50": "> 30 µg/mL"}
{"COMPOUND": "CC[C@H]1CN2CCc3cc(OC)c(OC)cc3[C@@H]2C[C@@H]1C[C@H]1NCCc2cc(O)c(OC)cc21 [CEPHAELINE]", "IC50": "14.9 µg/mL"}
